Origin of measurements: patent US11096985B2

Tested on: clinical strains of Acinetobacter baumannii
Assay: MIC, clinical strains of Acinetobacter baumannii
Format: cell-based
Conditions: Acinetobacter baumannii clinical strain 5; microdilution, Muller Hinton broth-cation adjusted, 0.02% BSA, 0.2% acetic acid
Where a SMILES comes first, the peptide text is derived from it. [ ]: non-standard residue; d: D form.
Measure: Minimum inhibitory concentration
Answers are plain numbers.

>  <Compound>
CC(C)C[C@@H](NC(=O)[C@H](N)CCCNC(=N)N)C(=O)N[C@H](CCCCN)C(=O)N[C@H](Cc1c[nH]c2ccccc12)C(=O)N[C@H](Cc1ccccc1)C(=O)N[C@H](CC(C)C)C(=O)N[C@H](CC(C)C)C(=O)N[C@H](Cc1ccccc1)C(=O)N[C@H](CCCNC(=N)N)C(=O)N[C@H](CCCCN)C(=O)N[C@H](CCCNC(=N)N)C(=O)O [Chain308D] (H-[dR][dL][dK][dW][dF][dL][dL][dF][dR][dK][dR]-OH)

>  <Minimum inhibitory concentration>
2

$$$$
>  <Compound>
CC(C)C[C@@H](NC(=O)[C@H](N)CCCNC(=N)N)C(=O)N[C@H](CCCCN)C(=O)N[C@H](CCCNC(=N)N)C(=O)N[C@H](Cc1c[nH]c2ccccc12)C(=O)N[C@H](CCCNC(=N)N)C(=O)N[C@H](CC(C)C)C(=O)N[C@H](Cc1ccccc1)C(=O)N[C@H](CCCNC(=N)N)C(=O)N[C@H](CCCCN)C(=O)N[C@H](CCCNC(=N)N)C(=O)O [Chain306D] (H-[dR][dL][dK][dR][dW][dR][dL][dF][dR][dK][dR]-OH)

>  <Minimum inhibitory concentration>
8

$$$$
>  <Compound>
CC[C@@H](C)[C@@H](NC(=O)[C@@H](Cc1c[nH]c2ccccc12)NC(=O)[C@H](N)CCCCN)C(=O)N[C@@H](C(=O)N[C@H](Cc1c[nH]c2ccccc12)C(=O)N[C@H](CCCNC(=N)N)C(=O)N[C@H](Cc1c[nH]c2ccccc12)C(=O)N[C@H](CCCNC(=N)N)C(=O)N[C@H](Cc1ccccc1)C(=O)N[C@H](CCCCN)C(=O)N[C@H](CCCNC(=N)N)C(=O)O)C(C)C [Chain201D] (H-[dK][dW][dI][dV][dW][dR][dW][dR][dF][dK][dR]-OH)

>  <Minimum inhibitory concentration>
4

$$$$

For the next question, use this compound.
(Q) Please look up its Minimum inhibitory concentration: CC[C@@H](C)[C@@H](NC(=O)[C@@H](CC(C)C)NC(=O)[C@@H](CCCNC(=N)N)NC(=O)[C@H](N)CCCNC(=N)N)C(=O)N[C@H](Cc1c[nH]c2ccccc12)C(=O)N[C@H](CCCNC(=N)N)C(=O)N[C@H](CCCNC(=N)N)C(=O)N[C@H](Cc1ccccc1)C(=O)N[C@H](CCCCN)C(=O)N[C@H](Cc1c[nH]c2ccccc12)C(=O)N[C@H](CC(C)C)C(=O)N[C@H](CCCNC(=N)N)C(=O)O [Chain204D] (H-[dR][dR][dL][dI][dW][dR][dR][dF][dK][dW][dL][dR]-OH)
(A) 4

----------
Tested on: clinical strains of Candida albicans
Test: MIC, clinical yeast strains, Candida albicans
Type: cell-based
Set-up: unit: μg/ml
Details: Candida albicans clinical yeast strain 4
Where a SMILES comes first, the peptide text is derived from it. [ ]: non-standard residue; d: D form.
Measure: Minimum inhibitory concentration
Give bare numbers.

Recorded Minimum inhibitory concentration, per entry:
>  <Compound>
CC(C)C[C@@H](NC(=O)[C@H](N)CCCCN)C(=O)N[C@H](CCCCN)C(=O)N[C@H](Cc1c[nH]c2ccccc12)C(=O)N[C@H](Cc1ccccc1)C(=O)N[C@H](Cc1c[nH]c2ccccc12)C(=O)N[C@H](CC(C)C)C(=O)N[C@H](Cc1ccccc1)C(=O)N[C@H](CCCCN)C(=O)N[C@H](CCCCN)C(=O)N[C@H](CCCNC(=N)N)C(=O)O [Chain311D] (H-[dK][dL][dK][dW][dF][dW][dL][dF][dK][dK][dR]-OH)

>  <Minimum inhibitory concentration>
16

$$$$
>  <Compound>
CC(C)C[C@@H](NC(=O)[C@H](N)CCCNC(=N)N)C(=O)N[C@H](CCCCN)C(=O)N[C@H](Cc1c[nH]c2ccccc12)C(=O)N[C@H](Cc1ccccc1)C(=O)N[C@H](CC(C)C)C(=O)N[C@H](CC(C)C)C(=O)N[C@H](Cc1ccccc1)C(=O)N[C@H](CCCNC(=N)N)C(=O)N[C@H](CCCCN)C(=O)N[C@H](CCCNC(=N)N)C(=O)O [Chain308D] (H-[dR][dL][dK][dW][dF][dL][dL][dF][dR][dK][dR]-OH)

>  <Minimum inhibitory concentration>
16

$$$$
>  <Compound>
C[C@@H]1[C@H](O)[C@@H](C)/C=C/C=C/C=C/C=C/C=C/C=C/C=C/[C@H](O[C@@H]2O[C@H](C)[C@@H](O)[C@H](N)[C@@H]2O)C[C@@H]2O[C@](O)(C[C@@H](O)C[C@@H](O)[C@H](O)CC[C@@H](O)C[C@@H](O)CC(=O)O[C@H]1C)C[C@H](O)[C@H]2C(=O)O [Amphotericin B, reference compound]

>  <Minimum inhibitory concentration>
2

$$$$

Shift focus to the following entry.
(Q) Consider the compound CC(C)C[C@@H](NC(=O)[C@@H](CCCCN)NC(=O)[C@@H](Cc1c[nH]c2ccccc12)NC(=O)[C@@H](CCCCN)NC(=O)[C@@H](C)NC(=O)[C@@H](Cc1c[nH]cn1)NC(=O)[C@@H](CC(C)C)NC(=O)[C@@H](CCCNC(=N)N)NC(=O)[C@@H](Cc1c[nH]c2ccccc12)NC(=O)[C@H](N)Cc1c[nH]c2ccccc12)C(=O)N[C@H](Cc1c[nH]c2ccccc12)C(=O)O [Chain109D] (H-[dW][dW][dR][dL][dH][dA][dK][dW][dK][dL][dW]-OH) and give its measured Minimum inhibitory concentration.
(A) 128

----------
System: clinical strains of Candida albicans
Assay: MIC, clinical yeast strains, Candida albicans
Type: cell-based
Design: unit: μg/ml
Settings: Candida albicans clinical yeast strain 4
Where a SMILES comes first, the peptide text is derived from it. [ ]: non-standard residue; d: D form.
Measure: Minimum inhibitory concentration
One number for each entry.

>  <Compound>
CC[C@@H](C)[C@@H](NC(=O)[C@@H](CC(C)C)NC(=O)[C@@H](CCCNC(=N)N)NC(=O)[C@H](N)CCCNC(=N)N)C(=O)N[C@H](Cc1c[nH]c2ccccc12)C(=O)N[C@H](CCCNC(=N)N)C(=O)N[C@H](CCCNC(=N)N)C(=O)N[C@H](Cc1ccccc1)C(=O)N[C@H](CCCCN)C(=O)N[C@H](Cc1c[nH]c2ccccc12)C(=O)N[C@H](CC(C)C)C(=O)N[C@H](CCCNC(=N)N)C(=O)O [Chain204D] (H-[dR][dR][dL][dI][dW][dR][dR][dF][dK][dW][dL][dR]-OH)

>  <Minimum inhibitory concentration>
8

$$$$

Consider the additional compound presented here.
(Q) For the compound CC(C)C[C@@H](NC(=O)[C@H](N)CCCNC(=N)N)C(=O)N[C@H](CCCCN)C(=O)N[C@H](Cc1c[nH]c2ccccc12)C(=O)N[C@H](Cc1ccccc1)C(=O)N[C@H](Cc1c[nH]c2ccccc12)C(=O)N[C@H](CC(C)C)C(=O)N[C@H](Cc1ccccc1)C(=O)N[C@H](CCCNC(=N)N)C(=O)N[C@H](CCCCN)C(=O)N[C@H](CCCNC(=N)N)C(=O)O [Chain307D] (H-[dR][dL][dK][dW][dF][dW][dL][dF][dR][dK][dR]-OH) , what Minimum inhibitory concentration is on record?
(A) 16

----------
Could you please report measured Minimum inhibitory concentration for the items listed next?
System: clinical strains of Enterobacter cloacae
Assay: MIC, clinical strains of Enterobacter cloacae
Assay type: cell-based
Parameters: unit: μg/ml
Conditions: Enterobacter cloacae clinical strain 1; microdilution, Muller Hinton broth-cation adjusted, 0.02% BSA, 0.2% acetic acid
Where a SMILES comes first, the peptide text is derived from it. [ ]: non-standard residue; d: D form.
Give bare numbers.

Use these answered entries as a reference point.
>  <Compound>
CC(C)C[C@@H](NC(=O)[C@H](N)CCCCN)C(=O)N[C@H](CCCCN)C(=O)N[C@H](Cc1c[nH]c2ccccc12)C(=O)N[C@H](Cc1ccccc1)C(=O)N[C@H](Cc1c[nH]c2ccccc12)C(=O)N[C@H](CC(C)C)C(=O)N[C@H](Cc1ccccc1)C(=O)N[C@H](CCCCN)C(=O)N[C@H](CCCCN)C(=O)N[C@H](CCCNC(=N)N)C(=O)O [Chain311D] (H-[dK][dL][dK][dW][dF][dW][dL][dF][dK][dK][dR]-OH)

>  <Measured on>
clinical strains of Enterobacter cloacae

>  <Minimum inhibitory concentration>
4

$$$$
>  <Compound>
CC[C@@H](C)[C@@H](NC(=O)[C@@H](Cc1c[nH]c2ccccc12)NC(=O)[C@H](N)CCCCN)C(=O)N[C@@H](C(=O)N[C@H](Cc1c[nH]c2ccccc12)C(=O)N[C@H](CCCNC(=N)N)C(=O)N[C@H](Cc1c[nH]c2ccccc12)C(=O)N[C@H](CCCNC(=N)N)C(=O)N[C@H](Cc1ccccc1)C(=O)N[C@H](CCCCN)C(=O)N[C@H](CCCNC(=N)N)C(=O)O)C(C)C [Chain201D] (H-[dK][dW][dI][dV][dW][dR][dW][dR][dF][dK][dR]-OH)

>  <Measured on>
clinical strains of Enterobacter cloacae

>  <Minimum inhibitory concentration>
1

$$$$
>  <Compound>
CC(C)C[C@@H](NC(=O)[C@@H](CCCCN)NC(=O)[C@@H](CCCCN)NC(=O)[C@@H](Cc1ccccc1)NC(=O)[C@@H](CC(C)C)NC(=O)[C@@H](Cc1c[nH]c2ccccc12)NC(=O)[C@@H](CCCNC(=N)N)NC(=O)[C@@H](Cc1c[nH]c2ccccc12)NC(=O)[C@@H](CCCCN)NC(=O)[C@@H](CCCNC(=N)N)NC(=O)[C@H](N)CCCCN)C(=O)O [Chain310D] (H-[dK][dR][dK][dW][dR][dW][dL][dF][dK][dK][dL]-OH)

>  <Measured on>
clinical strains of Enterobacter cloacae

>  <Minimum inhibitory concentration>
128

$$$$

(Q) Fill in: Minimum inhibitory concentration of CC[C@@H](C)[C@@H](NC(=O)[C@@H](CC(C)C)NC(=O)[C@@H](CCCNC(=N)N)NC(=O)[C@H](N)CCCNC(=N)N)C(=O)N[C@H](Cc1c[nH]c2ccccc12)C(=O)N[C@H](CCCNC(=N)N)C(=O)N[C@H](CCCNC(=N)N)C(=O)N[C@H](Cc1ccccc1)C(=O)N[C@H](CCCCN)C(=O)N[C@H](Cc1c[nH]c2ccccc12)C(=O)N[C@H](CC(C)C)C(=O)N[C@H](CCCNC(=N)N)C(=O)O [Chain204D] (H-[dR][dR][dL][dI][dW][dR][dR][dF][dK][dW][dL][dR]-OH) is ___
(A) 4
